Recorded values, source ChEMBL document CHEMBL1138561.

Test system: Staphylococcus aureus
method: Antibacterial activity against Staphylococcus aureus ATCC 6538 after 18 hrs
Assay type: functional
condition label: ATCC 6538, 18 h

smiles entry	relation operator	MIC / µg/mL
C=CCOc1ccc(C[C@H](NC(C)=O)C(=O)N[C@@H](CCCCN)C(=O)N[C@H](CCCNC(=N)N)C(=O)N[C@@H](CC=C)C(=O)OCc2ccccc2)cc1.Cl.Cl	>	125
CN[C@H](CC(C)C)C(=O)N[C@H]1C(=O)N[C@@H](CC(N)=O)C(=O)N[C@H]2C(=O)N[C@H]3C(=O)N[C@H](C(=O)N[C@H](C(=O)O)c4cc(O)cc(O)c4-c4cc3ccc4O)[C@H](O)c3ccc(c(Cl)c3)Oc3cc2cc(c3O[C@@H]2O[C@H](CO)[C@@H](O)[C@H](O)[C@H]2O[C@H]2C[C@](C)(N)[C@H](O)[C@H](C)O2)Oc2ccc(cc2Cl)[C@H]1O	=	1.95
C=CC[C@H](NC(=O)[C@@H](CCCNC(=N)N)NC(=O)[C@H](CCCCN)NC(=O)[C@H](Cc1ccc(-c2c3ccccc3cc3ccccc23)cc1)NC(C)=O)C(=O)OCc1ccccc1.Cl.Cl	=	15.6
C=CC[C@H](NC(=O)[C@H](CCCCN)NC(=O)[C@H](Cc1ccc(-c2cc3ccccc3c3ccccc23)cc1)NC(C)=O)C(=O)OC.Cl	=	15.6
C=CC[C@H](NC(=O)[C@@H](CCCNC(=N)N)NC(=O)[C@H](CCCCN)NC(=O)[C@H](Cc1ccc(-c2cc3ccccc3c3ccccc23)cc1)NC(C)=O)C(=O)OCc1ccccc1.Cl.Cl	=	7.8
C=CC[C@H](NC(=O)[C@H](CCCCN)NC(=O)[C@H](Cc1ccc(-c2c3ccccc3cc3ccccc23)cc1)NC(C)=O)C(=O)OC.Cl	=	31.3
